subject-of-test: rat DPP IV (Rattus norvegicus, UniProt P14740)
Sequence (P14740 whole entry): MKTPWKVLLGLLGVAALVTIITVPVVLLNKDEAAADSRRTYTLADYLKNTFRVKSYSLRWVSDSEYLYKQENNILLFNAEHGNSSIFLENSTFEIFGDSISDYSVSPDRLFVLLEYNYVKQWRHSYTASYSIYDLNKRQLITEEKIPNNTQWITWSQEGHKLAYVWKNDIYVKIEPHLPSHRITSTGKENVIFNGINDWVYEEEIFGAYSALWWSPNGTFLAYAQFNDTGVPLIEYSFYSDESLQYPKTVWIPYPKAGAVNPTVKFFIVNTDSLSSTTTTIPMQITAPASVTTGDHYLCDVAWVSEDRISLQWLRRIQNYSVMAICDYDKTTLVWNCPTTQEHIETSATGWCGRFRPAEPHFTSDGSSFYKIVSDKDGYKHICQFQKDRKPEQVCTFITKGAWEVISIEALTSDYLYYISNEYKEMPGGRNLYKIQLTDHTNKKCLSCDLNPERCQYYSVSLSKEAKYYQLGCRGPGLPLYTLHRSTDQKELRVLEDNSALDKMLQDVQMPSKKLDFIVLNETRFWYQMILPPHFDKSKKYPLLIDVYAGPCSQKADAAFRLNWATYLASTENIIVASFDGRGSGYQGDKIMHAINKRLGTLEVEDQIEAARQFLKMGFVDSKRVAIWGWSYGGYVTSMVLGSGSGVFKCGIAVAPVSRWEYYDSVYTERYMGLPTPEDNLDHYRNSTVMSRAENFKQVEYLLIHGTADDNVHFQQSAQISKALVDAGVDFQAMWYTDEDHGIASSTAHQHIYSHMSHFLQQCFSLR
experimental-protocol: Digestion of model hexapeptides by rat DPP IV (LCMS)
assay-conditions: pH 8
Ends that are not written are not given here.
measure-name: half-life
Respond with the figure and its unit, in that order.

| substance | half-life |
| --- | --- |
| APISWS-NH2 [Ala-Pro-Ile-Ser-Trp-Ser-NH2] | 41 min |

# context switch: different substance, same half-life
Fill in half-life for record APLSWS-NH2 [Ala-Pro-Leu-Ser-Trp-Ser-NH2]
49 min

Data provenance is patent US8318668B2.
